tested on: OVCAR-3; experiment: NCI tumour cell line growth inhibition, 48 h
Calls of active or inactive are those of the source. Rule as the data show it: active = GI50 up to about 1.1 µM and inactive = higher.
Quantity Kind: GI50

> print(dat)
                                   compound  experimental.target      recorded.result
1  Nc1nc(-[n+]2ccc(-c3ccncc3)cc2)nc(Cl)c1Cl              OVCAR-3   17.3 µM (inactive)
2  CCCCCCCCCCCCCC(=O)OC1C(CO)OC(=O)C1O (centres undefined)              OVCAR-3  > 100 µM (inactive)
3  COC(=O)[C@H]1[C@H]2C[C@@H]3c4[nH]c5cc(OC)ccc5c4CCN3C[C@H]2C[C@@H](OC(=O)c2cc(OC)c(OC)c(OC)c2)[C@@H]1OC              OVCAR-3   18.3 µM (inactive)
4  CC(=O)OCC1OC(n2c3c(c(-c4ccco4)c(C#N)c2=S)CCCC3)C(OC(C)=O)C(OC(C)=O)C1OC(C)=O (centres undefined)              OVCAR-3   23.2 µM (inactive)
5  CC(C)C/C(CC(=O)CCC(=O)Nc1ccccc1[N+](=O)[O-])=N\NC(=O)c1cc2ccccc2cc1O              OVCAR-3   26.7 µM (inactive)

### Prompt Data request, read-out GI50, for CC(=O)OCC1C(=O)OCC1C(=O)N1Cc2cc3ccccc3nc2C1 (centres undefined)
### Response 1.57 µM (inactive)

### Prompt Data request, read-out GI50, for CCN(CC)C(=O)CC12CCCCC1=Nc1ccccc12 (centres undefined)
### Response > 100 µM (inactive)

### Prompt Data request, read-out GI50, for COc1ccc(C2C3=C(COC3=O)OC(C)(C)Oc3cc4c(cc32)OCO4)cc1 (centres undefined)
### Response 36.6 µM (inactive)

### Prompt Data request, read-out GI50, for `COc1cc(/C=C/c2ccc(OC)c(OC)c2OC)cc(OC)c1OC`
### Response 16 µM (inactive)

Hello, the source for this data is ChEMBL document CHEMBL1201862, in case you need it.
